Listed here: items and their measured IC95.
# Tested on: HIV
# METHOD_SUMMARY: Assay for inhibition of HIV replication (spread assay; acute HIV infection of T-lymphoid cells)
# Format: cell-based
# CONDITION_CONTEXT: Human immunodeficiency virus 1, tested up to 1 micromolar

Some compounds with recorded IC95:
COMPOUND: Cc1cccn2c(=O)c(O)c(C(=O)NCc3ccc(F)cc3)nc12 [Example 29]
MEASURED_ENDPOINT: IC95
OBSERVED: > 1000 nM

COMPOUND: O=C(Nc1cccn2c(=O)c(O)c(C(=O)NCc3ccc(F)cc3)nc12)c1ccccc1 [Example 14]
MEASURED_ENDPOINT: IC95
OBSERVED: > 1000 nM

COMPOUND: CC(C)CN(C(=O)C(=O)N(C)C)c1cccn2c(=O)c(O)c(C(=O)NCc3ccc(F)cc3)nc12 [Example 18]
MEASURED_ENDPOINT: IC95
OBSERVED: < 1000 nM

COMPOUND: CCN(C(=O)c1ccccn1)c1cccn2c(=O)c(O)c(C(=O)NCc3ccc(F)cc3)nc12 [Example 16]
MEASURED_ENDPOINT: IC95
OBSERVED: < 1000 nM

Returns the measured IC95 for the input compound. Input: CC(=O)N(C)c1cccn2c(=O)c(O)c(C(=O)NCc3ccc(F)cc3)nc12 [Example 6]
> 1000 nM

Returns the measured IC95 for the input compound. Input: CCNc1cccn2c(=O)c(O)c(C(=O)NCc3ccc(F)cc3)nc12 [Example 10]
< 1000 nM

Returns the measured IC95 for the input compound. Input: O=C(NCc1ccc(F)cc1)c1nc2ccccn2c(=O)c1O [Example 1]
< 1000 nM

Returns the measured IC95 for the input compound. Input: CCN(C(=O)CN(C)C)c1cccn2c(=O)c(O)c(C(=O)NCc3ccc(F)cc3)nc12 [Example 20]
< 1000 nM

###

Listed here: items and their measured IC95.
# Test system: HIV
# METHOD_SUMMARY: Assay for inhibition of HIV replication (spread assay; acute HIV infection of T-lymphoid cells)
# Format: cell-based
# CONDITION_CONTEXT: Human immunodeficiency virus 1, tested up to 1 micromolar

Some compounds with recorded IC95:
SMILES_REPRESENTATION: CN(C)Cc1cccn2c(=O)c(O)c(C(=O)NCc3ccc(F)cc3)nc12
IC95: > 1000 nM
//
SMILES_REPRESENTATION: CC(=O)N1CCN(Cc2cccn3c(=O)c(O)c(C(=O)NCc4ccc(F)cc4)nc23)CC1
IC95: > 1000 nM

So what IC95 did CN(C(=O)CS(C)(=O)=O)c1cccn2c(=O)c(O)c(C(=O)NCc3ccc(F)cc3)nc12 get with HIV?
< 1000 nM

So what IC95 did O=C(Nc1cccn2c(=O)c(O)c(C(=O)NCc3ccc(F)cc3)nc12)OCc1ccccc1 get with HIV?
< 1000 nM

So what IC95 did CCN(C(=O)c1ccno1)c1cccn2c(=O)c(O)c(C(=O)NCc3ccc(F)cc3)nc12 get with HIV?
< 1000 nM

So what IC95 did O=C(NCc1ccc(F)cc1)c1nc2ccc(Br)cn2c(=O)c1O get with HIV?
> 1000 nM

###

Listed here: items and their measured IC95.
# Test system: HIV
# METHOD_SUMMARY: Assay for inhibition of HIV replication (spread assay; acute HIV infection of T-lymphoid cells)
# Type: cell-based
# CONDITION_CONTEXT: Human immunodeficiency virus 1, tested up to 1 micromolar

SMILES_REPRESENTATION: CCCN(C(=O)C(=O)N(C)C)c1cccn2c(=O)c(O)c(C(=O)NCc3ccc(F)cc3)nc12
IC95: < 1000 nM
//
SMILES_REPRESENTATION: CCN(CC)CC(=O)N(CC)c1cccn2c(=O)c(O)c(C(=O)NCc3ccc(F)cc3)nc12
IC95: > 1000 nM

Returns the measured IC95 for the input compound. Input: O=C(NCc1cccn2c(=O)c(O)c(C(=O)NCc3ccc(F)cc3)nc12)c1ccccc1
> 1000 nM

Returns the measured IC95 for the input compound. Input: CCN(C(=O)CN1CCOCC1)c1cccn2c(=O)c(O)c(C(=O)NCc3ccc(F)cc3)nc12
> 1000 nM

Returns the measured IC95 for the input compound. Input: CCN(C(=O)c1ccncc1)c1cccn2c(=O)c(O)c(C(=O)NCc3ccc(F)cc3)nc12
> 1000 nM

Returns the measured IC95 for the input compound. Input: CON(C)Cc1cccn2c(=O)c(O)c(C(=O)NCc3ccc(F)cc3)nc12
> 1000 nM

Returns the measured IC95 for the input compound. Input: CN(C)c1cccn2c(=O)c(O)c(C(=O)NCc3ccc(F)cc3)nc12
> 1000 nM

Returns the measured IC95 for the input compound. Input: CCN(C(=O)CN1CCN(C)CC1)c1cccn2c(=O)c(O)c(C(=O)NCc3ccc(F)cc3)nc12
> 1000 nM

Returns the measured IC95 for the input compound. Input: CCN(C(=O)C(=O)N1CCCC1)c1cccn2c(=O)c(O)c(C(=O)NCc3ccc(F)cc3)nc12
< 1000 nM

Returns the measured IC95 for the input compound. Input: CNc1cccn2c(=O)c(O)c(C(=O)NCc3ccc(F)cc3)nc12
> 1000 nM

Returns the measured IC95 for the input compound. Input: CCN(C(=O)c1cscn1)c1cccn2c(=O)c(O)c(C(=O)NCc3ccc(F)cc3)nc12
< 1000 nM

Returns the measured IC95 for the input compound. Input: CN(C)C(=O)C(=O)N(C)c1cccn2c(=O)c(O)c(C(=O)NCc3ccc(F)cc3)nc12
< 1000 nM

Returns the measured IC95 for the input compound. Input: CCN(C(=O)C(=O)N1CCOCC1)c1cccn2c(=O)c(O)c(C(=O)NCc3ccc(F)cc3)nc12
< 1000 nM
